tested on: OVCAR-5 ovarian; experiment: NCI tumour cell line growth inhibition, 48 h
measured_parameter: TGI

Previously resolved entries follow.
compound: COc1ccc2c(c1)/C(=C\c1c(Cl)n(-c3ccccc3)c3ccccc13)C(=O)N2
TGI: 50 µM
--
compound: O=C1CSC(c2ccccc2O)N1c1nc2cc3sc(N4C(=O)CSC4c4ccccc4O)nc3cc2s1 (stereo not given)
TGI: > 100 µM

QUERY: Fill in: TGI of O=C1c2ccccc2C(=O)c2c1ccc1c2N=C(c2ccc(Br)cc2)CC(c2cccc3ccccc23)N1 (stereo not given) is ___
RESULT: > 100 µM

QUERY: Likewise for CC1COCCN1CC#CCOC(=O)c1cc2ccccc2oc1=O (stereo not given) ?
RESULT: > 100 µM

QUERY: And what about the compound O=c1c2ccccc2nc2sc(/N=C/C=C/c3ccccc3)nn12 ?
RESULT: > 100 µM

Provenance of the data: PubChem BioAssay (NCI)
